Where do the numbers come from? From paper PMC4336329.

target: human ether-à-go-go-related gene (hERG) potassium channel (human); test: primary screen, population patch clamp on CHO cells stably expressing hERG; higher = less effect of the substance;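 note: peak tail current of the secondary pulse compared with the same well before compound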
About 14,000 (4.5%) of roughly 310,000 compounds showed an effect of 50% or more. The effect is printed as a negative number. The list comes from a sample in which strong results are over-represented; it also holds close analogues and randomly drawn compounds.
Hi there, I'd appreciate the recorded hERG current change (%, negative = inhibition) at 10uM for every entry that follows.
One number for each entry, in %.

C/C=C/c1ccc(OCC(=O)Nc2ccc(C(N)=O)cc2)c(OC)c1    7.23
CCOC(=O)CSc1ccc(C(=O)Nc2ccc(Cl)cc2)cn1    21.8
O=C(Cc1ccc([N+](=O)[O-])cc1)N1CCN=C1SCc1ccccc1    -7.33
O=C(Cc1ccc(F)cc1)N1CCN=C1SCc1ccc([N+](=O)[O-])cc1    -47.3

Quote hERG current change (%, negative = inhibition) at 10uM reported for COc1cccc(C(=O)Nc2cnn(C(C)C)c2)c1 please.
9.94

====

Target: human ether-à-go-go-related gene (hERG) potassium channel (human);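 note: peak tail current of the secondary pulse compared with the same well before compound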
Test: primary screen, population patch clamp on CHO cells stably expressing hERG; higher = less effect of the substance
Description: Briefly, Chinese hamster ovary (CHO) cells stably expressing the hERG channel were dislodged from tissue culture flasks and dispensed into PPC plates. […] During the recording, background leak currents were estimated by a 100 ms step to -80 mV from an initial holding potential of -70 mV and subtracted from the subsequent current measurement. The campaign was conducted in two phases using slight differences in recording protocol. […]
Hit rate of the full screen: of about 310,000 compounds, about 14,000 (4.5%) showed an effect of 50% or more. The effect is printed as a negative number. This excerpt belongs to a sample that is enriched for strong results.
Outcome Measure: hERG current change (%, negative = inhibition) at 10uM (%)
One number for each entry, in %.

Cc1nnsc1SCC(=O)O    -0.15

I would be grateful if you could provide hERG current change (%, negative = inhibition) at 10uM for each of the following entries.
1. COC(=O)c1ccc(OCCn2cnc3ccccc3c2=O)cc1
2. CCC(=O)c1ccc(OCC(O)CN2CCN(c3cccc(C(F)(F)F)c3)CC2)cc1 (stereo not shown)
3. CCOC(=O)N1CCN(C(=O)c2ccc(NS(C)(=O)=O)cc2)CC1
4. CCOc1ccc(OCC(O)CN2CCN(S(=O)(=O)c3cccc(C(F)(F)F)c3)CC2)cc1.O=C(O)C(=O)O (stereo not shown)
5. CC(C)(c1ccccc1)c1ccc(OCC(O)CN2CCCC2)cc1.Cl (stereo not shown)
6. CCC(=O)c1ccc(OCC(O)CN2CCN(c3ccccn3)CC2)cc1 (stereo not shown)
7. COc1cc(/C=C/C(=O)N2CCN(CC(O)COc3ccccc3)CC2)cc(OC)c1OC.Cl (stereo not shown)

1: -11.2; 2: -55.2; 3: -5.65; 4: 13.7; 5: -60.3; 6: -34; 7: -8.44

I would be grateful if you could provide hERG current change (%, negative = inhibition) at 10uM for each of the following entries.
1. Cl.O=C(C(c1ccccc1)c1ccccc1)N1CCN(CC(O)COc2ccccc2)CC1 (stereo not shown)
2. CC(=O)N1CCN(CC(O)COc2ccc(OCc3ccccc3)cc2)CC1 (stereo not shown)

[-13.7, -17.7]

====

Hi there, I'd appreciate the recorded hERG current change (%, negative = inhibition) at 10uM for every entry that follows.
target: human ether-à-go-go-related gene (hERG) potassium channel (human, UniProt Q12809); test: primary screen, population patch clamp on CHO cells stably expressing hERG; higher = less effect of the substance;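 note: peak tail current of the secondary pulse compared with the same well before compound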
Sequence (Q12809 whole entry, looked up): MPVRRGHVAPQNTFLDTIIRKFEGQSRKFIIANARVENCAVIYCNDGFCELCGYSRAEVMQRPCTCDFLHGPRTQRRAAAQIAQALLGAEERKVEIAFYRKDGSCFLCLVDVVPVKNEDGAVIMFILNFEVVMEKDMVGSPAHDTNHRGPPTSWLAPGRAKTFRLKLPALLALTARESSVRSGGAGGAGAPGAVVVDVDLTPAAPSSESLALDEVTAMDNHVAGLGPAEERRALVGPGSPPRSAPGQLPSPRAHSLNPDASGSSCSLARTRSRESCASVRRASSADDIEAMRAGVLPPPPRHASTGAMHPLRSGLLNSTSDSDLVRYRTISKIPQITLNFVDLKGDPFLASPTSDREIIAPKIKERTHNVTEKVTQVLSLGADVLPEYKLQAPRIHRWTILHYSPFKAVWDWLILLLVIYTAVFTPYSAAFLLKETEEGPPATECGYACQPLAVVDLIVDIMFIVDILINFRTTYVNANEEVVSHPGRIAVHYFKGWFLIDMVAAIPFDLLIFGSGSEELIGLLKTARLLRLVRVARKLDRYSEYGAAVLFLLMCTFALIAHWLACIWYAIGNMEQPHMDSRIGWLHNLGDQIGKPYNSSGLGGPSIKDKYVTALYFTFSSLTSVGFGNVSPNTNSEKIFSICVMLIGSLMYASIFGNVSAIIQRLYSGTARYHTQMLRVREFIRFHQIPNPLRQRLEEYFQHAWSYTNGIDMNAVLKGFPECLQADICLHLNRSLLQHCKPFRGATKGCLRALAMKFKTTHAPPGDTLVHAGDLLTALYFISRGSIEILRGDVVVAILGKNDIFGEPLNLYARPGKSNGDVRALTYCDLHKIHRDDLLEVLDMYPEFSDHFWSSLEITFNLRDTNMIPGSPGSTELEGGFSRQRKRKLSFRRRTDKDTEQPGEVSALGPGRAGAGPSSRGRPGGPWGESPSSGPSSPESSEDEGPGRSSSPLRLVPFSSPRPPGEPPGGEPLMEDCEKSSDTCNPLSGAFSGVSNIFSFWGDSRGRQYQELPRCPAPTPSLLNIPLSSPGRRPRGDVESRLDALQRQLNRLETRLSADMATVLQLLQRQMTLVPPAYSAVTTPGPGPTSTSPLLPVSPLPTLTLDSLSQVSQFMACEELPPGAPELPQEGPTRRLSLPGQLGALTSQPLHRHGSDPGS
Hit rate of the full screen: of about 310,000 compounds, about 14,000 (4.5%) showed an effect of 50% or more. Effects have a minus sign here. For the sample, strong results were picked, then their nearest neighbours and some compounds at random.
One number for each entry, in %.

COc1cc(OC)cc(C(=O)Nc2ncn[nH]2)c1    7.31

I would be grateful if you could provide hERG current change (%, negative = inhibition) at 10uM for each of the following entries.
1. CCCCC1C(C#N)=C(C)NC2=C1C(=O)CC(C)(C)C2 (centres unmarked)
2. Cn1nnc2c[n+](CC(=O)c3ccc(Cl)cc3)cc(Br)c21.[Br-]
3. CN(C)CCCN(C(=O)c1ccc(S(=O)(=O)N2CCCCCC2)cc1)c1nc2ccc(Br)cc2s1.Cl
4. O=C(NCCN1CCN(C(=O)c2cccc([N+](=O)[O-])c2)CC1)C(=O)NCc1ccc(Cl)cc1
5. COc1ccc(C(=O)C[n+]2ccc3c(c2)nc(-c2ccccc2)n3C)cc1.[Br-]

1: -9.68; 2: -24.7; 3: -22; 4: -50.1; 5: -1.44

I would be grateful if you could provide hERG current change (%, negative = inhibition) at 10uM for each of the following entries.
1. CC(C)c1ccc(OCc2ccc(C(=O)NN3CCN(C)CC3)o2)cc1
2. Cc1c(CC(=O)O)c(=O)oc2c(C)c(OCc3c(F)cccc3Cl)ccc12
3. CN(C)CCCN(C(=O)c1ccc(S(=O)(=O)N2CCOCC2)cc1)c1nc2ccc(F)cc2s1.Cl

-31.7
5.53
-58.7

I would be grateful if you could provide hERG current change (%, negative = inhibition) at 10uM for each of the following entries.
1. O=C(C[n+]1ccccc1)c1ccc(Cl)cc1.[I-]
2. O=C(Cc1ccc(Cl)cc1)NCCN1CCN(C(=O)Cc2ccc(Cl)cc2)CC1
3. O=C(CO/N=C/c1ccc(OC(F)F)cc1)NC1CCCCC1
4. CCCCn1c(N)c(N(CCOC)C(=O)C2CCN(S(=O)(=O)c3ccc(F)cc3)CC2)c(=O)[nH]c1=O
5. Cc1ccc(C(=O)N2CCN(CCNC(=O)C(=O)NCc3ccc(Cl)cc3)CC2)cc1
6. COc1cc(/C=N\Nc2nc3ccccc3[nH]2)cc(OC)c1OC
7. CN(C)CCCN(C(=O)c1ccc(S(=O)(=O)N2CCCc3ccccc32)cc1)c1nc2ccc(F)cc2s1.Cl
8. COc1cc(CNn2nnnc2N)ccc1OCc1c(Cl)cccc1Cl

1: 10; 2: -53.4; 3: -8.59; 4: -1.06; 5: -74; 6: -19.8; 7: -17.1; 8: -1.22

I would be grateful if you could provide hERG current change (%, negative = inhibition) at 10uM for each of the following entries.
1. O=C(/C(=C/c1ccc(Cl)cc1)c1nc2ccccc2[nH]1)c1cccs1
2. Cn1c(=O)c2c(SCC(N)=O)nc(CC(C)(C)C)nc2n(C)c1=O
3. COc1cc(CNCc2ccccn2)ccc1OCc1c(Cl)cccc1Cl.Cl
4. CN(C)CCN(C(=O)c1ccc2c(c1)CCCC2)c1nc2c(F)cccc2s1.Cl
5. O=C(NCc1ccccn1)[C@H]1C[C@@H]1[C@H](NP(=O)(c1ccccc1)c1ccccc1)c1ccccc1
6. Cc1ccc(C(=O)N2CCN(CCNC(=O)C(=O)NC(C)C)CC2)cc1
7. CCOC(=O)c1ccc(NC(=O)c2nc[nH]c2C(=O)NCC(=O)OC(C)(C)C)cc1
8. COc1cc(/C=C(/C(=O)c2cccs2)c2nc3ccccc3[nH]2)ccc1O

2.82
-10.5
-51.5
-14.6
-9
9.12
19.5
-22.2

I would be grateful if you could provide hERG current change (%, negative = inhibition) at 10uM for each of the following entries.
1. COc1cccc2sc(N(CCN(C)C)C(=O)c3ccc4c(c3)CCCC4)nc12.Cl
2. O=C(NCc1ccccn1)c1ccccc1OCc1ccc(Cl)cc1Cl
3. CN(C)CCCN(C(=O)c1ccc(S(=O)(=O)N2CCc3ccccc32)cc1)c1nc2ccc(F)cc2s1.Cl
4. CN1CCN(C(=O)CNC(=O)Cc2ccc(Cl)cc2)CC1
5. COc1cc(CNC2CCCCCCC2)c(Br)cc1OCCO.Cl

1: -66.7; 2: -1.04; 3: -13.7; 4: 5.31; 5: 7

I would be grateful if you could provide hERG current change (%, negative = inhibition) at 10uM for each of the following entries.
1. O=C(CSc1ncnc2c1nnn2Cc1ccccc1F)NCC1CCCO1 (centres unmarked)
2. CCN(C(=O)COC(=O)C1CCN(S(=O)(=O)c2ccc(C)c(C)c2)CC1)C1CCCCC1
3. CN(C)CCCN(C(=O)c1ccc(S(=O)(=O)N2CCc3ccccc32)cc1)c1nc2c(Cl)cccc2s1.Cl

[-2.7, -10.4, -27.6]

I would be grateful if you could provide hERG current change (%, negative = inhibition) at 10uM for each of the following entries.
1. Oc1cccc2nc3ccccc3nc12
2. O=C(NCCN1CCN(C(=O)c2ccc(F)cc2)CC1)C(=O)NCc1ccccc1
3. CC1CN(c2nnnn2-c2ccccc2)CC(C)O1 (centres unmarked)
4. CC(C)(C)c1ccc(C(=O)N2CCN(CCNC(=O)C(=O)NCc3ccc(Cl)cc3)CC2)cc1
5. CCNc1oc(-c2cccc3ccccc23)nc1C#N

2.6
-73.9
-23.1
-41.1
15.7
